Just for reference, PubChem BioAssay (NCATS) is where these values come from.

TEST NAME: Primary qHTS to identify inhibitors of SARS-CoV-2 cell entry (AID 1645846); note: nearly all actives have a fitted effect of over 45% in size
EXPERIMENTAL CONDITIONS: SARS-CoV-2 pseudovirus cell entry assay, luminescence; series mostly up to 57.1 µM
Results filed as inconclusive are left out. Calls of active or inactive are those of the source. Calls come from the whole dose curve.
Permitted responses: True (active), False (inactive)

COMPOUND	ASSIGNED CATEGORY
OC[C@H]1O[C@@H](Oc2cc(O)cc(/C=C/c3ccc(O)cc3)c2)[C@H](O)[C@@H](O)[C@@H]1O	False
Cn1c(=O)c(-c2c(Cl)cccc2Cl)cc2cnc(Nc3cccc(C(=O)O)c3)nc21	False
Cc1cc(CN2CCN(c3c(Br)cnc4nc(-c5ccc(N6CCN(C)CC6)cc5)[nH]c34)CC2)no1	True
CC(=O)OCC(=O)[C@@]12OC(C)(C)O[C@@H]1C[C@H]1[C@@H]3C[C@H](F)C4=CC(=O)C=C[C@]4(C)[C@@]3(F)[C@@H](O)C[C@@]12C	False
COc1cc(C[C@@H](CO)[C@H](CO)Cc2ccc(O)c(OC)c2)ccc1O	False
CC(C(=O)O)c1ccc(-c2ccccc2)c(F)c1 (centres undefined)	False
CNC(=O)c1ccc(C)c(-n2c(C)cc(OCc3ccc(F)cc3F)c(Br)c2=O)c1	True
CC(C)C(C)C=CC(C)C1CCC2C3=CC=C4CC(O)CCC4(C)C3CCC21C (centres undefined)	False
C=CC(=O)Nc1ccc2ncnc(Nc3ccc(OCc4cccc(F)c4)c(Cl)c3)c2c1	False
Cc1c(NC(=O)c2ccc(C(C)(C)C)cc2)cccc1-c1cn(C)c(=O)c(Nc2ccc(C(=O)N3CCOCC3)cc2)n1	False

Per the records of this test, what outcome belongs to O=C(NCCCCN1CCOCC1)c1cc2ccccc2o1 ?
False

Answer briefly: the call reported for CC(=O)OC1C(C)OC(Oc2c(-c3ccc(O)cc3)oc3cc(O)cc(O)c3c2=O)C(O)C1OC(C)=O (centres undefined) in this assay.
False

Hi, sorry to bother you, what did the test record for COc1ccc(-c2cnc3c(-c4cccc5ncccc45)cnn3c2)cc1 ?
False

Outcome? COc1ccc(Nc2nccc(NCCO)n2)cc1
False

###

MEASUREMENT TARGET: Cytochrome P450 2C9 (Homo sapiens)
TEST NAME: Cytochrome P450 family 2 subfamily C member 9 (CYP2C9) small molecule antagonists: luciferase biochemical (cell-free) qHTS assay (AID 1645842); note: nearly all actives have a fitted effect of over 55% in size
EXPERIMENTAL CONDITIONS: P450-Glo CYP2C9 enzyme assay, luciferin luminescence; series mostly up to 57.4 µM
Results filed as inconclusive are left out. Calls of active or inactive are those of the source. Calls follow the shape of the dose curve; as a rule, active = well fitted inhibition curve with a large enough effect in the repeat runs; inconclusive = weak or mixed curves; inactive = no such curve, though single readings can be large or run the other way.
// allowed return values: true = active, false = inactive

// known answers, use as guide
MOL SMILES	ASSIGNED CATEGORY
COc1cc(N2CCN(C)CC2)ccc1N	false
CCOC(=O)c1ccc(-c2ccc(OC(=O)N(C)Cc3cccc(-c4ccncc4)c3)cc2)cc1	true
Cc1[nH]c2ccc(Cl)cc2c1CCN(C)C	false
NCCCCCNC1(c2ccccc2)CCCCC1	false
O=C(NCCN1CCC2(CC1)C(=O)NCN2c1cccc(F)c1)c1ccc2ccccc2c1	true

// switching to the query compound
Per the assay record, what outcome was assigned to CC(=O)N1N=C(c2ccc(N)cc2)c2cc3c(cc2C[C@H]1C)OCO3 ?
true
